Assay: Macrophage cytotoxicity, LDH release assay
Type: cell-based, murine
Details: mouse, RAW 264.7 macrophages stimulated with LPS; LPS-stimulated RAW 264.7, LDH release; mean ± SD, n = 3
pIC50: −log10 of the molar value.
parameter_measured: pIC50

[[record]]
compound = "COc1ccc(C(=O)/C=C/c2ccc3c(c2)OCO3)cc1"
parameter_measured = "pIC50"
reported_measurement = "< 3.45"

[[record]]
compound = "O=C(/C=C/c1ccc([N+](=O)[O-])cc1)c1ccc(Br)cc1"
parameter_measured = "pIC50"
reported_measurement = "< 3.52"

[[record]]
compound = "Cc1ccc(C(=O)/C=C/c2ccc3c(c2)OCO3)cc1"
parameter_measured = "pIC50"
reported_measurement = "< 3.43"

[[record]]
compound = "COc1ccc(C(=O)/C=C/c2ccc(F)cc2)cc1"
parameter_measured = "pIC50"
reported_measurement = "< 3.41"

[[record]]
compound = "COc1ccc(/C=C/C(=O)c2ccccc2)cc1"
parameter_measured = "pIC50"
reported_measurement = "< 3.38"

[[record]]
compound = "O=C(/C=C/c1ccc(F)cc1)c1ccccc1Cl"
parameter_measured = "pIC50"
reported_measurement = "< 3.42"

[[record]]
compound = "COc1ccc(/C=C/C(=O)c2ccccc2Cl)cc1"
parameter_measured = "pIC50"
reported_measurement = "< 3.44"

[[record]]
compound = "O=C(/C=C/c1ccc2c(c1)OCO2)c1ccccc1Cl"
parameter_measured = "pIC50"
reported_measurement = "< 3.46"

[[record]]
compound = "O=C(/C=C/c1ccc([N+](=O)[O-])cc1)c1ccccc1Cl"
parameter_measured = "pIC50"
reported_measurement = "< 3.46"

[[record]]
compound = "O=C(/C=C/c1ccc(F)cc1)c1ccc(Br)cc1"
parameter_measured = "pIC50"
reported_measurement = "< 3.48"

[[record]]
compound = "O=C(/C=C/c1ccc2c(c1)OCO2)c1ccc(Br)cc1"
parameter_measured = "pIC50"
reported_measurement = "< 3.52"

[[record]]
compound = "Cc1ccc(C(=O)/C=C/c2ccccc2Cl)cc1"
parameter_measured = "pIC50"
reported_measurement = "< 3.41"

